Tested on: NCI-H292 lung cancer cells
protocolText: FDA drug screening, complete media vs cholesterol-free media without statin (TABLE 1)
Type: cell-based, human
experimentalParameters: Complete minus Cholesterol-free; […]
Counter-ions that a name gives are not always drawn.
Decision: Difference >= -0.2 yields Y, all other cases yield N.

Solved entries:
1) C[C@H]1C(=O)O[C@@H]2CCN3CC=C(COC(=O)[C@](C)(O)[C@]1(C)O)[C@H]23 ... Y
2) CCCCCCCCCCCC(=O)OCN1C(=O)CCc2ccc(OCCCCN3CCN(c4cccc(Cl)c4Cl)CC3)cc21 ... Y
3) CCOC(=O)c1cncn1[C@H](C)c1ccccc1 [Etomidate (hydrochloride)] ... N
4) CC(=O)O[C@H]1C[C@H](O[C@H]2[C@@H](O)C[C@H](O[C@H]3[C@@H](O)C[C@H](O[C@H]4CC[C@@]5(C)[C@H](CC[C@@H]6[C@@H]5C[C@@H](O)[C@]5(C)[C@@H](C7=CC(=O)OC7)CC[C@]65O)C4)O[C@@H]3C)O[C@@H]2C)O[C@H](C)[C@H]1O[C@@H]1O[C@H](CO)[C@@H](O)[C@H](O)[C@H]1O [Lanatoside C] ... Y
5) O=S(=O)(O)c1ccc2[nH]c(-c3ccccc3)nc2c1 ... Y

q: Assess whether reported Difference for C[C@@H]1[C@@H](c2ccc(Cl)cc2)SC(=O)N1C(=O)NC1CCCCC1 sits at -0.2 or higher.
a: Y

q: Assess whether reported Difference for Cn1c(=O)c2c(ncn2CC(O)CO)n(C)c1=O (stereo not shown) sits at -0.2 or higher.
a: N

q: Assess whether reported Difference for NCC1(CC(=O)O)CCCCC1 [Gabapentin (hydrochloride)] sits at -0.2 or higher.
a: N

q: Assess whether reported Difference for C[n+]1ccccc1C=NO.[I-] [Pralidoxime (iodide)] sits at -0.2 or higher.
a: Y

q: Assess whether reported Difference for Nc1ccc(C(=O)[O-])c(O)c1.O.O.[Na+] [Sodium 4-aminosalicylate (dihydrate)] sits at -0.2 or higher.
a: Y
